B1: H2-Kb / B3 (parent)
chain 1: GQQVKQSSPSLTVQEGGISILNCDYENDMFDYFAWYKKYPDNSPTLLISVRSNVDKREDGRLTVFLNKSGKHFSLHITASQPEDTAVYLCAAGNTGYQNFYFGKGTSLTVIP
chain 2: DSGVVQSPRHIIKEKGGRSVLTCIPISGHSNVVWYQQTLGKELKFLIQHYEKVERDKGFLPSRFSVQQFDDYHSEMNMSALELEDSAMYFCASSSLQGARNQAPLFGEGTRLSVL
chain 3: not shown
chain 4: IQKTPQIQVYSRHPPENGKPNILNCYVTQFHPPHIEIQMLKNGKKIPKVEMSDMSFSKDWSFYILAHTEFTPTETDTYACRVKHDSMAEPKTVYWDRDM
chain 5: SIINFEKL

variants of: B1; assay: % of reporter cells activated (NFAT-GFP), raw; conditions: with B3; scale: % of reporter cells activated; also: test concentration or dose not given here
Response field label takes y when ratio to parent is strictly below 0.3 and n in all other cases.

Lookup: hey, is ratio to parent for chain 5 F5L lower than 0.3 or not?
Found: n

Lookup: hey, is ratio to parent for chain 5 N4W lower than 0.3 or not?
Found: y

Lookup: hey, is ratio to parent for chain 5 F5H lower than 0.3 or not?
Found: n

Lookup: hey, is ratio to parent for chain 5 N4P lower than 0.3 or not?
Found: y

Lookup: hey, is ratio to parent for chain 5 E6Q lower than 0.3 or not?
Found: n

Lookup: hey, is ratio to parent for chain 5 I3M lower than 0.3 or not?
Found: n

Lookup: hey, is ratio to parent for chain 5 I2A lower than 0.3 or not?
Found: n

Lookup: hey, is ratio to parent for chain 5 F5M lower than 0.3 or not?
Found: n

Lookup: hey, is ratio to parent for chain 5 E6S lower than 0.3 or not?
Found: n

Lookup: hey, is ratio to parent for chain 5 N4K lower than 0.3 or not?
Found: y

Lookup: hey, is ratio to parent for chain 5 N4I lower than 0.3 or not?
Found: y

Lookup: hey, is ratio to parent for chain 5 N4S lower than 0.3 or not?
Found: y

Lookup: hey, is ratio to parent for chain 5 L8W lower than 0.3 or not?
Found: n

Lookup: hey, is ratio to parent for chain 5 K7W lower than 0.3 or not?
Found: n

Lookup: hey, is ratio to parent for chain 5 F5D lower than 0.3 or not?
Found: y

Lookup: hey, is ratio to parent for chain 5 I2R lower than 0.3 or not?
Found: n

Lookup: hey, is ratio to parent for chain 5 E6W lower than 0.3 or not?
Found: n

Lookup: hey, is ratio to parent for chain 5 S1F lower than 0.3 or not?
Found: y

Lookup: hey, is ratio to parent for chain 5 S1C lower than 0.3 or not?
Found: y

Lookup: hey, is ratio to parent for chain 5 K7E lower than 0.3 or not?
Found: y

Lookup: hey, is ratio to parent for chain 5 L8Y lower than 0.3 or not?
Found: n

Lookup: hey, is ratio to parent for chain 5 L8I lower than 0.3 or not?
Found: n

Lookup: hey, is ratio to parent for chain 5 I2D lower than 0.3 or not?
Found: n

Lookup: hey, is ratio to parent for chain 5 I2M lower than 0.3 or not?
Found: n

Lookup: hey, is ratio to parent for chain 5 I3P lower than 0.3 or not?
Found: n

Lookup: hey, is ratio to parent for chain 5 F5R lower than 0.3 or not?
Found: y

Lookup: hey, is ratio to parent for chain 5 I2N lower than 0.3 or not?
Found: n
